Values compiled from ChEMBL document CHEMBL2150897.

Tested On: Renin (Homo sapiens)
Assay Overview: Inhibition of human plasma renin activity after 60 mins by competitive RIA
Readout Label: IC50 (nM)

Compound	Value
CC[C@H](C[C@H](O)[C@@H](N)CN1CC(=O)N(c2ccccc2Cl)CC1(C)C)C(=O)NC1C2CC3CC1CC(O)(C3)C2.O.O=C(O)/C=C/C(=O)O (stereo partly specified)	1.9

---

Assay Overview: Half life in cynomolgus monkey at 3 mg/kg, po
Format: ADME, organism-based, Macaca fascicularis
Design: dose 3 mg/kg, route oral
Run Parameters: in vivo

Compound	Unit Abbreviation	half-life
CC[C@H](C[C@H](O)[C@@H](N)CN1CC(=O)N(c2ccccc2Cl)CC1(C)C)C(=O)NC1C2CC3CC1CC(O)(C3)C2.O.O=C(O)/C=C/C(=O)O (stereo partly specified)	h	5.1

---

Tested On: UniProtKB Q6DLS0
Sequence (Q6DLS0 whole entry): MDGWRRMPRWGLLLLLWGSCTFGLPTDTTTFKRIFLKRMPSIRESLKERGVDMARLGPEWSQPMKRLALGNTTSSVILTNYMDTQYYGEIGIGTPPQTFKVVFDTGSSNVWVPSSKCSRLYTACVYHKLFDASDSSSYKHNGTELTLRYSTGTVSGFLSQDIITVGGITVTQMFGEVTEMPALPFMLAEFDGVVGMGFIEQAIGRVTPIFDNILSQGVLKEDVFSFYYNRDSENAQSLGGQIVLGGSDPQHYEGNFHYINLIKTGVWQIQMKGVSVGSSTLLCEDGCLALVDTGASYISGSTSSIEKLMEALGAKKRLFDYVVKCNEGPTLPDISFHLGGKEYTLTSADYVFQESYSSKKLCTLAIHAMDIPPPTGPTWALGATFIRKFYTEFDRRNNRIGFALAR
Assay Overview: Inhibition of cynomolgus monkey plasma renin activity after 60 mins by competitive RIA

Compound	IC50
CC[C@H](C[C@H](O)[C@@H](N)CN1CC(=O)N(c2ccccc2Cl)CC1(C)C)C(=O)NC1C2CC3CC1CC(O)(C3)C2.O.O=C(O)/C=C/C(=O)O (stereo partly specified)	6.3 nM

---

Tested On: Cathepsin E (Homo sapiens)
Sequence (P14091 whole entry): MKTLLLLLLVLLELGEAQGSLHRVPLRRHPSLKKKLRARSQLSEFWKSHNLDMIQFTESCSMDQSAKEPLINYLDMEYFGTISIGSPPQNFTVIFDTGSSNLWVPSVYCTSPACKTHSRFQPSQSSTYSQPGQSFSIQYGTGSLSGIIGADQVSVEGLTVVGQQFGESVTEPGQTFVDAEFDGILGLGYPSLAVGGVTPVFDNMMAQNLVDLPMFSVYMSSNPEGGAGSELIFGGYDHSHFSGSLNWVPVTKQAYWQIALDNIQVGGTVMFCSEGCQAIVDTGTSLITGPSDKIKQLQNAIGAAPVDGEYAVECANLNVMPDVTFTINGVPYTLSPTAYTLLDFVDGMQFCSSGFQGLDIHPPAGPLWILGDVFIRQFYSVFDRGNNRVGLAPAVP
pIC50: −log10 of the molar value.

Molecule	Tested On	pIC50
CC[C@H](C[C@H](O)[C@@H](N)CN1CC(=O)N(c2ccccc2Cl)CC1(C)C)C(=O)NC1C2CC3CC1CC(O)(C3)C2.O.O=C(O)/C=C/C(=O)O (stereo partly specified)	Cathepsin E (Homo sapiens)	< 5.00

---

Assay Overview: Volume of distribution at steady state in cynomolgus monkey at 3 mg/kg, iv
Format: ADME, organism-based, Macaca fascicularis
Set-up: dose 3 mg/kg, route intravenous
Run Parameters: in vivo, read-out: Vdss

Compound	Vd, L/kg
CC[C@H](C[C@H](O)[C@@H](N)CN1CC(=O)N(c2ccccc2Cl)CC1(C)C)C(=O)NC1C2CC3CC1CC(O)(C3)C2.O.O=C(O)/C=C/C(=O)O (stereo partly specified)	1.12

---

Tested On: Renin (Homo sapiens, UniProt P00797)
Sequence (P00797 whole entry): as the sequence (Q6DLS0 whole entry) above, with A68T, L214I, A235S counted along it
Assay Overview: Inhibition of human recombinant renin compound treated for 10 mins before substrate addition measured after 90 mins by fluorescence method

Molecule	Tested On	IC50 (nM)
CC[C@H](C[C@H](O)[C@@H](N)CN1CC(=O)N(c2ccccc2Cl)CC1(C)C)C(=O)NC1C2CC3CC1CC(O)(C3)C2.O.O=C(O)/C=C/C(=O)O (stereo partly specified)	Renin (Homo sapiens, UniProt P00797)	0.9

---

Assay Overview: Cmax in cynomolgus monkey at 10 mg/kg, po
Type: ADME, organism-based, Macaca fascicularis
Parameters: dose 10 mg/kg, route oral
Run Parameters: in vivo

Compound	Cmax / ng/mL
CC[C@H](C[C@H](O)[C@@H](N)CN1CC(=O)N(c2ccccc2Cl)CC1(C)C)C(=O)NC1C2CC3CC1CC(O)(C3)C2.O.O=C(O)/C=C/C(=O)O (stereo partly specified)	399

---

Assay Overview: AUC ( 0 to t) in cynomolgus monkey at 10 mg/kg, po
Assay type: ADME, organism-based, Macaca fascicularis
Parameters: dose 10 mg/kg, route oral
Run Parameters: plasma

Compound	AUC(0-t)
CC[C@H](C[C@H](O)[C@@H](N)CN1CC(=O)N(c2ccccc2Cl)CC1(C)C)C(=O)NC1C2CC3CC1CC(O)(C3)C2.O.O=C(O)/C=C/C(=O)O (stereo partly specified)	2880 ng·h/mL

---

Assay Overview: Half life in cynomolgus monkey at 3 mg/kg, iv
Assay type: ADME, organism-based, Macaca fascicularis
Set-up: dose 3 mg/kg, route intravenous
Run Parameters: in vivo

Compound	half-life
CC[C@H](C[C@H](O)[C@@H](N)CN1CC(=O)N(c2ccccc2Cl)CC1(C)C)C(=O)NC1C2CC3CC1CC(O)(C3)C2.O.O=C(O)/C=C/C(=O)O (stereo partly specified)	7.8 h

---

Assay Overview: Half life in cynomolgus monkey at 10 mg/kg, po
Format: ADME, organism-based, Macaca fascicularis
Parameters: dose 10 mg/kg, route oral
Run Parameters: in vivo
Readout Label: half-life (h)

Compound	Readout Label	Value
CC[C@H](C[C@H](O)[C@@H](N)CN1CC(=O)N(c2ccccc2Cl)CC1(C)C)C(=O)NC1C2CC3CC1CC(O)(C3)C2.O.O=C(O)/C=C/C(=O)O (stereo partly specified)	half-life	5.4

---

Assay Overview: Oral bioavailability in cynomolgus monkey at 3 mg/kg
Assay type: ADME, organism-based, Macaca fascicularis
Run Parameters: in vivo
Readout Label: bioavailability (%)

Compound	Value
CC[C@H](C[C@H](O)[C@@H](N)CN1CC(=O)N(c2ccccc2Cl)CC1(C)C)C(=O)NC1C2CC3CC1CC(O)(C3)C2.O.O=C(O)/C=C/C(=O)O (stereo partly specified)	4.1

---

Assay Overview: Tmax in cynomolgus monkey at 10 mg/kg, po
Format: ADME, organism-based, Macaca fascicularis
Design: dose 10 mg/kg, route oral
Run Parameters: in vivo

Compound	Tmax (h)
CC[C@H](C[C@H](O)[C@@H](N)CN1CC(=O)N(c2ccccc2Cl)CC1(C)C)C(=O)NC1C2CC3CC1CC(O)(C3)C2.O.O=C(O)/C=C/C(=O)O (stereo partly specified)	2.3

---

Assay Overview: AUC ( 0 to t) in cynomolgus monkey at 3 mg/kg, iv
Type: ADME, organism-based, Macaca fascicularis
Parameters: dose 3 mg/kg, route intravenous
Run Parameters: plasma

Molecule	AUC(0-t)
CC[C@H](C[C@H](O)[C@@H](N)CN1CC(=O)N(c2ccccc2Cl)CC1(C)C)C(=O)NC1C2CC3CC1CC(O)(C3)C2.O.O=C(O)/C=C/C(=O)O (stereo partly specified)	15500 ng·h/mL

---

Assay Overview: Inhibition of Cytochrome P450
Format: ADME

Molecule	IC50
CC[C@H](C[C@H](O)[C@@H](N)CN1CC(=O)N(c2ccccc2Cl)CC1(C)C)C(=O)NC1C2CC3CC1CC(O)(C3)C2.O.O=C(O)/C=C/C(=O)O (stereo partly specified)	> 10 µM
